# STUDY TARGET: T1, IL-1β (UniProt P01584 117-269)
# T1 construct: Antigen immobilised on the Biacore chip
# ASSAY DETAILS: Biacore, periplasmic extract
METRIC NAME: fold difference in affinity vs original (fold)
Answers are plain numbers, in fold.

Examples from the recorded data:
binder="XPA23 light chain R31T (Fab, V domains shown) VH: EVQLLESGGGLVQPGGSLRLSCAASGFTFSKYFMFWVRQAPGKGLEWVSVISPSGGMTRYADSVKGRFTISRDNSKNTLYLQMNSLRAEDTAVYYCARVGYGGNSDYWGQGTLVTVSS VL: DIQMTQSPSSVSASVGDRLTIICRASQDINTWLAWYQQTPGNAPKLLIHSATSLQSGVPSRFSGSGSGTDFTLTINSLQPEDFATYYCQQADSFPLTFGGGTKVEIK" scale_unit=fold reported_result=0.24
binder="XPA23 light chain S53N (Fab, V domains shown) VH: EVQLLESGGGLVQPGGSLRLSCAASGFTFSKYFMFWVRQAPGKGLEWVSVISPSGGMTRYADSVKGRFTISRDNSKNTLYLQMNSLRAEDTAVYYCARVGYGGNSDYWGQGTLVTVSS VL: DIQMTQSPSSVSASVGDRLTIICRASQDINRWLAWYQQTPGNAPKLLIHSATNLQSGVPSRFSGSGSGTDFTLTINSLQPEDFATYYCQQADSFPLTFGGGTKVEIK" scale_unit=fold reported_result=1.23
binder="XPA23 light chain A51E (Fab, V domains shown) VH: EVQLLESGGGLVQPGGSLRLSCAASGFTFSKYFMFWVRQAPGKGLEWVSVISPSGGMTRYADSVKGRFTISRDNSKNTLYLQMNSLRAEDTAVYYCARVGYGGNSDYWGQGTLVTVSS VL: DIQMTQSPSSVSASVGDRLTIICRASQDINRWLAWYQQTPGNAPKLLIHSETSLQSGVPSRFSGSGSGTDFTLTINSLQPEDFATYYCQQADSFPLTFGGGTKVEIK" scale_unit=fold reported_result=0.29
binder="XPA23 light chain T52H (Fab, V domains shown) VH: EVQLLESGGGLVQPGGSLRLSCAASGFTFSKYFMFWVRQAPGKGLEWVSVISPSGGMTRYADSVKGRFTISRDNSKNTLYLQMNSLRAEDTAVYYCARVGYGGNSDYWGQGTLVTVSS VL: DIQMTQSPSSVSASVGDRLTIICRASQDINRWLAWYQQTPGNAPKLLIHSAHSLQSGVPSRFSGSGSGTDFTLTINSLQPEDFATYYCQQADSFPLTFGGGTKVEIK" scale_unit=fold reported_result=0.91
binder="XPA23 light chain S50G (Fab, V domains shown) VH: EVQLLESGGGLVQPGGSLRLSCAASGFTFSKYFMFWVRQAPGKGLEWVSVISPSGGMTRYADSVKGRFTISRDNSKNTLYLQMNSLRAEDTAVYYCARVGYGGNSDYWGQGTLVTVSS VL: DIQMTQSPSSVSASVGDRLTIICRASQDINRWLAWYQQTPGNAPKLLIHGATSLQSGVPSRFSGSGSGTDFTLTINSLQPEDFATYYCQQADSFPLTFGGGTKVEIK" scale_unit=fold reported_result=0.14
binder="XPA23 light chain D28A (Fab, V domains shown) VH: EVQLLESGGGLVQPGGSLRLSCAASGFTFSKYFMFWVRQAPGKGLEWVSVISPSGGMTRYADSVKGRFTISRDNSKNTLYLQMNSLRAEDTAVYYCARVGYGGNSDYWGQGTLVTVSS VL: DIQMTQSPSSVSASVGDRLTIICRASQAINRWLAWYQQTPGNAPKLLIHSATSLQSGVPSRFSGSGSGTDFTLTINSLQPEDFATYYCQQADSFPLTFGGGTKVEIK" scale_unit=fold reported_result=0.88
binder="XPA23 light chain P95E (Fab, V domains shown) VH: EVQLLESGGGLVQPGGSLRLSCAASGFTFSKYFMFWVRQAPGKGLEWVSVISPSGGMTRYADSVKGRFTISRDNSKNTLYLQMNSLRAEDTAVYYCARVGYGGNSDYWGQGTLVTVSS VL: DIQMTQSPSSVSASVGDRLTIICRASQDINRWLAWYQQTPGNAPKLLIHSATSLQSGVPSRFSGSGSGTDFTLTINSLQPEDFATYYCQQADSFELTFGGGTKVEIK" scale_unit=fold reported_result=0.88
binder="XPA23 light chain A51R (Fab, V domains shown) VH: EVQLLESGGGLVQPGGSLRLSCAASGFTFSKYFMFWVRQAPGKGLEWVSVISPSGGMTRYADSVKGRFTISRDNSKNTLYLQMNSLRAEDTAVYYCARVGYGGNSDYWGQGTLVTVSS VL: DIQMTQSPSSVSASVGDRLTIICRASQDINRWLAWYQQTPGNAPKLLIHSRTSLQSGVPSRFSGSGSGTDFTLTINSLQPEDFATYYCQQADSFPLTFGGGTKVEIK" scale_unit=fold reported_result=0.18
binder="XPA23 light chain R31L (Fab, V domains shown) VH: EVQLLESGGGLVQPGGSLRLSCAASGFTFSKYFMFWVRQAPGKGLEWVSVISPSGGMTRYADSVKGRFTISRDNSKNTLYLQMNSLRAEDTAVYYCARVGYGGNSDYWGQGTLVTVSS VL: DIQMTQSPSSVSASVGDRLTIICRASQDINLWLAWYQQTPGNAPKLLIHSATSLQSGVPSRFSGSGSGTDFTLTINSLQPEDFATYYCQQADSFPLTFGGGTKVEIK" scale_unit=fold reported_result=0.51

// below: fold difference in affinity vs original requested for another binder
// query Provide fold difference in affinity vs original value for the following binder: XPA23 light chain A51T (Fab, V domains shown) VH: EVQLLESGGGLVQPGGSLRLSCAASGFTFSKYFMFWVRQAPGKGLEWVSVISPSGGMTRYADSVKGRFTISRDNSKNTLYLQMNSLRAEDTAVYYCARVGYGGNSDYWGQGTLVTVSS VL: DIQMTQSPSSVSASVGDRLTIICRASQDINRWLAWYQQTPGNAPKLLIHSTTSLQSGVPSRFSGSGSGTDFTLTINSLQPEDFATYYCQQADSFPLTFGGGTKVEIK
// result 0.76

Data origin: patent US20110118131A1
